testSystem: Voltage-dependent L-type calcium channel subunit alpha-1C (Cavia porcellus)
measurementNotes: Inhibition of Cav1.2 calcium current measured using whole cell patch clamp in guinea pig atrial myocytes
Format: functional, cell-based, Heart, Cardiac Muscle Cell
Design: ca sol conc 1.8 mM, temp 36 pm 1 C
Quick reference: pIC50 of the listed items.
Units for pIC50: none; it is -log10 of a concentration expressed in mol/L.

COc1ccc(OCCCN(C)CCOc2ccc3c(c2)OCO3)c([C@@H]2Sc3ccccc3N(C)C2=O)c1: 5.89

Request the reported pIC50 associated with CC(C)COCC(CN(Cc1ccccc1)c1ccccc1)N1CCCC1 (configuration not stated)
5.81

---

testSystem: Voltage-dependent L-type calcium channel subunit alpha-1C (Cavia porcellus, UniProt O35505)
Sequence (O35505 whole entry): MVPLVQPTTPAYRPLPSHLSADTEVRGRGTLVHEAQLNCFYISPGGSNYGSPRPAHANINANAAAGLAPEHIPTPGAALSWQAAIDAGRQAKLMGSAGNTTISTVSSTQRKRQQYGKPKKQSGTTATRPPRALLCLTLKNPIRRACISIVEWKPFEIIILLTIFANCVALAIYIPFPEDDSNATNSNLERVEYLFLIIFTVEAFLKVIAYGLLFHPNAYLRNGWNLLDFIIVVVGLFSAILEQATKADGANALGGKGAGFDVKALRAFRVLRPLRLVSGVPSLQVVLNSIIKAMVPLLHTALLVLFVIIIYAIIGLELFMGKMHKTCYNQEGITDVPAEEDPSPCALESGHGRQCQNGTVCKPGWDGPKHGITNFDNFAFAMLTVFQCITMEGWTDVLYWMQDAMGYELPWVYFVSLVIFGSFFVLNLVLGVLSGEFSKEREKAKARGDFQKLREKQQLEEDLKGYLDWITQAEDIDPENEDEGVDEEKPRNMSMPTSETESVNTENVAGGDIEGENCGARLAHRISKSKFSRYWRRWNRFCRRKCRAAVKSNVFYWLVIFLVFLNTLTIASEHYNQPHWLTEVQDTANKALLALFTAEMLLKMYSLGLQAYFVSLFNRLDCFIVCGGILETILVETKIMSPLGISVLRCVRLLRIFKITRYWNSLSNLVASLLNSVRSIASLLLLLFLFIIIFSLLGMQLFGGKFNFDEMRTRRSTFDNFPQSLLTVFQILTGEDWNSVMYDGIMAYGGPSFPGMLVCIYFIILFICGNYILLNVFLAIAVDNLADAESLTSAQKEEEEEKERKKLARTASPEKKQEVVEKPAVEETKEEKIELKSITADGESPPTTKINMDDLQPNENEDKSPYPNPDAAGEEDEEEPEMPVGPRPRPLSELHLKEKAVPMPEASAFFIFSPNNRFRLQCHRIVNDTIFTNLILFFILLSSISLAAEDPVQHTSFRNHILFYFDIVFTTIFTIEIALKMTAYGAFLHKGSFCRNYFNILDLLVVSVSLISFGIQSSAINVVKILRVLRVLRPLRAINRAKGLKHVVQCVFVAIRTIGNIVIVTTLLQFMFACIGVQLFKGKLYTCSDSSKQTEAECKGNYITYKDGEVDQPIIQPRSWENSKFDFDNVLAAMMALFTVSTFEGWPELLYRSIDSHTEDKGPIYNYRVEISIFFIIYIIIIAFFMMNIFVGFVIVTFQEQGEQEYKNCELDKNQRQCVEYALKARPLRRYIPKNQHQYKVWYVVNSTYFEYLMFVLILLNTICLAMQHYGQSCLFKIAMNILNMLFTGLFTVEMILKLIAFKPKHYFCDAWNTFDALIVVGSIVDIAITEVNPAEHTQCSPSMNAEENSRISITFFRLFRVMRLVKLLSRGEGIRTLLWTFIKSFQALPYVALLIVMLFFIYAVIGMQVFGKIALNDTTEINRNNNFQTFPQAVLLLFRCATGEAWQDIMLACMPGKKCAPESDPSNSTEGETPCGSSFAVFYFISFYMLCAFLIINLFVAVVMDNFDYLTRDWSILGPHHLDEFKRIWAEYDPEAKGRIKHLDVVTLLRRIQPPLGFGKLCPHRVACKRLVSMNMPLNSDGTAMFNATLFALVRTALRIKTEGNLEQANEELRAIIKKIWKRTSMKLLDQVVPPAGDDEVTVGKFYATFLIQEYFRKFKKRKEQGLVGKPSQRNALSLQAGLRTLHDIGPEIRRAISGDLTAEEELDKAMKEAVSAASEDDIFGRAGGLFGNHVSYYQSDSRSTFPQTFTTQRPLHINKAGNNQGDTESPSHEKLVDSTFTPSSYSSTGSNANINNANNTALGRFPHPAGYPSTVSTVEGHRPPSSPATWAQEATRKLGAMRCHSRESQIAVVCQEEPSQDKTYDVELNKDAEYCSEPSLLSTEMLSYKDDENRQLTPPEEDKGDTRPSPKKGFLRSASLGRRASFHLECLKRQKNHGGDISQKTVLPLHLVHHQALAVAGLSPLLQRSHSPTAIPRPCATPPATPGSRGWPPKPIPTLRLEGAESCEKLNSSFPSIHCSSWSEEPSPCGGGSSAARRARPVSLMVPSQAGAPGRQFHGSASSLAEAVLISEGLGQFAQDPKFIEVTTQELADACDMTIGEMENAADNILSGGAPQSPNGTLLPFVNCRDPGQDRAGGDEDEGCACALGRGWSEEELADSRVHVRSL
measurementNotes: Inhibition of Cav1.2 calcium current measured using whole cell patch clamp in guinea pig ventricular myocytes
Assay type: functional, cell-based, Heart, Ventricular myocyte
Set-up: ca sol conc 2 mM, temp 22/37 C
metricName: IC50 (µM)
# number only, unit µM dropped from output

Request the reported IC50 associated with CCCOC(C(=O)OC1CCN(C)CC1)(c1ccccc1)c1ccccc1
34.7

---

testSystem: Voltage-dependent L-type calcium channel subunit alpha-1C (Cavia porcellus, UniProt O35505)
measurementNotes: Inhibition of Cav1.2 calcium current measured using whole cell patch clamp in guinea pig ventricular myocytes
Type: functional, cell-based, Heart, Ventricular myocyte
Design: ca sol conc 2 mM, temp 21-23 C
metricName: IC50
Returns: string containing the numeric result and its unit.

Request the reported IC50 associated with CCCN1CCCC[C@H]1C(=O)Nc1c(C)cccc1C
430 µM

---

testSystem: Voltage-dependent L-type calcium channel subunit alpha-1C (Cavia porcellus, UniProt O35505)
measurementNotes: Inhibition of Cav1.2 calcium current measured using whole cell patch clamp in guinea pig ventricular myocytes
Format: functional, cell-based, Heart, Ventricular myocyte
Parameters: ca sol conc 1.8 mM
metricName: IC50 (µM)
# number only, unit µM dropped from output

Request the reported IC50 associated with CN1CCC(=C2c3ccccc3C=Cc3ccccc32)CC1
7.75

---

testSystem: Voltage-dependent L-type calcium channel subunit alpha-1C (Cavia porcellus)
measurementNotes: Inhibition of Cav1.2 calcium current measured using whole cell patch clamp in guinea pig ventricular myocytes
Assay type: functional, cell-based, Heart, Ventricular myocyte
Parameters: ca sol conc 1.8 mM, temp 37 C
metricName: pIC50
Units for pIC50: none; it is -log10 of a concentration expressed in mol/L.

Request the reported pIC50 associated with COC(=O)C1=CCCN(C)C1 [ARECOLINE]
4.47

---

testSystem: Voltage-dependent L-type calcium channel subunit alpha-1C (Rattus norvegicus, UniProt P22002)
Sequence (P22002 whole entry): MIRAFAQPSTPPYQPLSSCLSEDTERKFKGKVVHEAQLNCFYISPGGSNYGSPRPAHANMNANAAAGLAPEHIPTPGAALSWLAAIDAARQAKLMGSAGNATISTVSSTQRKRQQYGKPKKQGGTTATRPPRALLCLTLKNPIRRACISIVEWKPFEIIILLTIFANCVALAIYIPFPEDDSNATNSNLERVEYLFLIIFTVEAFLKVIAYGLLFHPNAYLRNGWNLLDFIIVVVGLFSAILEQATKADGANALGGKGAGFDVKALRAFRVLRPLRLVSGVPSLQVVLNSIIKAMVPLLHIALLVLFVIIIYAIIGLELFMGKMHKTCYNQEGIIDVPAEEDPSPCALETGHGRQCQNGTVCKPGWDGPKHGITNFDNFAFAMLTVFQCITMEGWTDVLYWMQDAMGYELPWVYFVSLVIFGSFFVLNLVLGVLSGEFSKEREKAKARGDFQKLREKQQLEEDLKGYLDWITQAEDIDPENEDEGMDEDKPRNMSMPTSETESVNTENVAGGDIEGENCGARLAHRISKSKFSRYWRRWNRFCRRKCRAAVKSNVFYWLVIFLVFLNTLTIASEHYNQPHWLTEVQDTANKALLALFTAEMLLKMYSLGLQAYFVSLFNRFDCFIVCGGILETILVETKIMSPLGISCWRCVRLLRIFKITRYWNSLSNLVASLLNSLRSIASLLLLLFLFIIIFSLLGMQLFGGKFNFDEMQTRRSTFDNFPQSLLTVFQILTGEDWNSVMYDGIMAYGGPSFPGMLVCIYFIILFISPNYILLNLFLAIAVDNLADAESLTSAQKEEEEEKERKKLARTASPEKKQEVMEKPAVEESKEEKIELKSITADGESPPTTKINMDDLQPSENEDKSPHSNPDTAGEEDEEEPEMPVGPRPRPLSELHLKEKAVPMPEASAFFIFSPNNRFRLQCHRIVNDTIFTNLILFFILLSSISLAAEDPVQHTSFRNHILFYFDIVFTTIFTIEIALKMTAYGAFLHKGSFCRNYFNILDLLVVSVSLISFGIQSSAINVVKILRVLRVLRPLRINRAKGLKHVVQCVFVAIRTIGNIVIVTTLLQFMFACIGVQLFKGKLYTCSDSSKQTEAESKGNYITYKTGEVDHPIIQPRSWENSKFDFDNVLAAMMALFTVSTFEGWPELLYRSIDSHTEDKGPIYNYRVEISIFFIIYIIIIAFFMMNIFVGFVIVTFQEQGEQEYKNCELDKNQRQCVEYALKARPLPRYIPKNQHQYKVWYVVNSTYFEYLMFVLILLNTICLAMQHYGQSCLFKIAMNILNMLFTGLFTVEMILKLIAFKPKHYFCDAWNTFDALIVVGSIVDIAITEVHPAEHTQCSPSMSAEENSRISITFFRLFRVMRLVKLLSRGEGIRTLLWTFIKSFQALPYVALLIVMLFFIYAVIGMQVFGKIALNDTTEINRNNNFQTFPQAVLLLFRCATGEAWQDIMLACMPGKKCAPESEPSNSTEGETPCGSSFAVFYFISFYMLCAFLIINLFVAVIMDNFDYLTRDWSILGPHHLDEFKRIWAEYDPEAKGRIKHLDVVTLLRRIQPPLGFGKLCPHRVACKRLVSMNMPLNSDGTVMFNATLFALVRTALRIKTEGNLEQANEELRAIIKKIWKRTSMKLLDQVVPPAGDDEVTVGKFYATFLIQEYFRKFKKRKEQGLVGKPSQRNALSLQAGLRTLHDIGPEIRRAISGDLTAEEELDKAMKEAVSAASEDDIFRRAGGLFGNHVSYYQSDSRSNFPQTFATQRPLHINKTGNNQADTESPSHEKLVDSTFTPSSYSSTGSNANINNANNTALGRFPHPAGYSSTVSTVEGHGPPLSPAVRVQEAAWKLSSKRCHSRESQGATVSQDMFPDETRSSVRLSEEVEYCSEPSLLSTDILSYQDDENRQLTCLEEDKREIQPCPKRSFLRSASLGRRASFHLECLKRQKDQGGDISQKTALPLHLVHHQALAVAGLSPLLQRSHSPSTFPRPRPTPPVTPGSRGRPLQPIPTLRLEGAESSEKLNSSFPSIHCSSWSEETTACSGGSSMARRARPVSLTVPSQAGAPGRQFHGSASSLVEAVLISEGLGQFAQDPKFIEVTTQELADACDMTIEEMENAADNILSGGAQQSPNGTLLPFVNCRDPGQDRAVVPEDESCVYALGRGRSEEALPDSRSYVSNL
measurementNotes: Inhibition of Cav1.2 calcium current measured using whole cell patch clamp in rat ventricular myocytess
Assay type: functional, cell-based, Heart, Ventricular myocyte
Set-up: ca sol conc 2 mM, temp 22-24 C
metricName: pIC50
Units for pIC50: none; it is -log10 of a concentration expressed in mol/L.

Request the reported pIC50 associated with CCCCC/C=C\C/C=C\C/C=C/C/C=C\CCCC(=O)NCCO
7.00

---

testSystem: Voltage-dependent L-type calcium channel subunit alpha-1C (Cavia porcellus)
measurementNotes: Inhibition of Cav1.2 calcium current measured using whole cell patch clamp in guinea pig ventricular myocytes
Assay type: functional, cell-based, Heart, Ventricular myocyte
Design: ca sol conc 1.8 mM, temp 24-26 C
metricName: pIC50
Units for pIC50: none; it is -log10 of a concentration expressed in mol/L.

Request the reported pIC50 associated with CC(=O)N(CCOc1cccc2ccccc12)CCc1ccc(NS(C)(=O)=O)cc1
6.04
